Reported IC50 for target or system LSD1 (Homo sapiens), by entry.
# output: bare number, implied unit nM

Worked examples, 3 compounds total:
| compound | val |
| --- | --- |
| Cc1ccc(-c2nc(SCc3cn(CC(=O)NC(=O)Nc4ccccn4)nn3)nc(Nc3cccc(Cl)c3)c2C#N)cc1 [Compound 14p] | 232 |
| N#Cc1c(Nc2ccc(Cl)cc2)nc(SCc2cn(Cc3ccccc3Cl)nn2)nc1-c1ccccc1 [Compound 10b] | 628 |
| N#Cc1c(Nc2cccc(Cl)c2)nc(SCc2cn(Cc3ccccc3Cl)nn2)nc1-c1ccccc1 [Compound 10c] | 6310 |

Any idea what IC50 came out for Cc1ccc(Nc2nc(SCc3cn(CC(=O)NC(=O)Nc4ccccn4)nn3)nc(-c3ccc(Cl)cc3)c2C#N)cc1 [Compound 14c] on LSD1 (Homo sapiens)?
531

Short answer please: IC50, LSD1 (Homo sapiens), entry Cc1ccc(Nc2nc(SCc3cn(CC(=O)NC(=O)Nc4ccccn4)nn3)nc(-c3ccc(Br)cc3)c2C#N)cc1 [Compound 14d]
3820
